test system: Enterococcus faecalis; assay: In vitro minimum inhibitory concentration against vancomycin-susceptible Enterococcus faecalis (GC 4554); type: functional
Label Fulfilled when MIC is strictly below 20 µg/mL; otherwise label Not fulfilled.

COMPOUND STRUCTURE STRING	ANSWER LABEL
C[C@@H](c1ccccc1)[C@@H]1NC(=O)CNC(=O)[C@H](CO)NC(=O)[C@@H]([C@@H](O)[C@@H]2CN=C(N)N2[C@H]2O[C@H](CO)[C@@H](O)[C@H](O)[C@@H]2O)NC(=O)[C@H]([C@H](O)[C@@H]2CN=C(N)N2)NC(=O)[C@@H](Cc2ccc3nc(-c4ccc(N(C)C)cc4)oc3c2)NC1=O	Not fulfilled
C[C@@H](c1ccccc1)[C@@H]1NC(=O)CNC(=O)[C@H](CO)NC(=O)[C@@H]([C@@H](O)[C@@H]2CN=C(N)N2[C@H]2O[C@H](CO)[C@@H](O)[C@H](O)[C@@H]2O)NC(=O)[C@H]([C@H](O)[C@@H]2CN=C(N)N2)NC(=O)[C@@H](Cc2ccc3nc(SCC(=O)c4ccc(Cl)cc4)oc3c2)NC1=O	Fulfilled
C[C@@H](c1ccccc1)[C@@H]1NC(=O)CNC(=O)[C@H](CO)NC(=O)[C@@H]([C@@H](O)[C@@H]2CN=C(N)N2[C@H]2O[C@H](CO)[C@@H](O)[C@H](O)[C@@H]2O)NC(=O)[C@H]([C@H](O)[C@@H]2CN=C(N)N2)NC(=O)[C@@H](Cc2ccc3nc(-c4cccc(F)c4)oc3c2)NC1=O	Not fulfilled
CCN1CCN(C(=O)N[C@@H](C(=O)N[C@@H]2C(=O)N3[C@@H]2SC(C)(C)[C@@H]3C(=O)O)c2ccccc2)C(=O)C1=O	Fulfilled
Cc1ccc(Oc2ccc(-c3nc4ccc(C[C@H]5NC(=O)[C@H]([C@@H](C)c6ccccc6)NC(=O)CNC(=O)[C@H](CO)NC(=O)[C@@H]([C@@H](O)[C@@H]6CN=C(N)N6[C@H]6O[C@H](CO)[C@@H](O)[C@H](O)[C@@H]6O)NC(=O)[C@H]([C@H](O)[C@@H]6CN=C(N)N6)NC5=O)cc4o3)cc2)cc1	Fulfilled

###

test system: Enterococcus faecalis; test: In vitro minimum inhibitory concentration against vancomycin-susceptible Enterococcus faecalis (GC 4552); type: functional

COMPOUND STRUCTURE STRING	MIC, µg/mL
C[C@@H](c1ccccc1)[C@@H]1NC(=O)CNC(=O)[C@H](CO)NC(=O)[C@@H]([C@@H](O)[C@@H]2CN=C(N)N2[C@H]2O[C@H](CO)[C@@H](O)[C@H](O)[C@@H]2O)NC(=O)[C@H]([C@H](O)[C@@H]2CN=C(N)N2)NC(=O)[C@@H](Cc2ccc3nc(SCC(=O)c4ccc(Cl)cc4)oc3c2)NC1=O	2
C[C@@H](c1ccccc1)[C@@H]1NC(=O)CNC(=O)[C@H](CO)NC(=O)[C@@H]([C@@H](O)[C@@H]2CN=C(N)N2[C@H]2O[C@H](CO)[C@@H](O)[C@H](O)[C@@H]2O)NC(=O)[C@H]([C@H](O)[C@@H]2CN=C(N)N2)NC(=O)[C@@H](Cc2ccc3nc(-c4ccc(N(C)C)cc4)oc3c2)NC1=O	64

###

test system: Enterococcus faecium; experiment: In vitro minimum inhibitory concentration against vancomycin-susceptible Enterococcus faecium (GC 4557); type: functional
Here the recorded MIC is given for each entry.

COMPOUND STRUCTURE STRING	MIC, µg/mL
C[C@@H](c1ccccc1)[C@@H]1NC(=O)CNC(=O)[C@H](CO)NC(=O)[C@@H]([C@@H](O)[C@@H]2CN=C(N)N2[C@H]2O[C@H](CO)[C@@H](O)[C@H](O)[C@@H]2O)NC(=O)[C@H]([C@H](O)[C@@H]2CN=C(N)N2)NC(=O)[C@@H](Cc2ccc3nc(-c4cccc(F)c4)oc3c2)NC1=O	8
C[C@@H](c1ccccc1)[C@@H]1NC(=O)CNC(=O)[C@H](CO)NC(=O)[C@@H]([C@@H](O)[C@@H]2CN=C(N)N2[C@H]2O[C@H](CO)[C@@H](O)[C@H](O)[C@@H]2O)NC(=O)[C@H]([C@H](O)[C@@H]2CN=C(N)N2)NC(=O)[C@@H](Cc2ccc3nc(SCC(=O)c4ccc(Cl)cc4)oc3c2)NC1=O	2
Cc1ccc(Oc2ccc(-c3nc4ccc(C[C@H]5NC(=O)[C@H]([C@@H](C)c6ccccc6)NC(=O)CNC(=O)[C@H](CO)NC(=O)[C@@H]([C@@H](O)[C@@H]6CN=C(N)N6[C@H]6O[C@H](CO)[C@@H](O)[C@H](O)[C@@H]6O)NC(=O)[C@H]([C@H](O)[C@@H]6CN=C(N)N6)NC5=O)cc4o3)cc2)cc1	4
CCN1CCN(C(=O)N[C@@H](C(=O)N[C@@H]2C(=O)N3[C@@H]2SC(C)(C)[C@@H]3C(=O)O)c2ccccc2)C(=O)C1=O	0.12
